System: NCI-H460 lung
assay-method-text: NCI-60 one-dose screen, 48 h (100 = growth as untreated, 0 = no growth, -100 = all killed)
experimental-parameters: 10 µM unless noted
About 83,000 compounds went through this panel and 20% of them were active in at least one assay; those are over-represented in the sample as a whole.
The threshold is inclusive: growth of exactly 10% counts as True; values below receive False.

Ask: Textbook exercise: given the entry CCC(O)(CN)c1ccccc1 (stereo not given) , state whether its growth is greater than or equal to 10%.
Result: True

Ask: // inclusive: growth at least 10%? input: "CC(C)[C@@H]1NC(=O)[C@]2(C)CSC(=N2)c2csc(n2)CNC(=O)C[C@@H](/C=C/CCS)OC1=O"
Result: False

Ask: In plain terms: is recorded growth at least 10% for "CC1=C(CCCOC(=O)[C@H](N)CC(C)C)C2=C(C)C3(CC3)[C@@](C)(O)C(=O)C2=C1" ?
Result: False

Ask: Item CC(C)(C)N1CC1C#N (stereo not given) with growth of 10% or above?
Result: True

Ask: Entry CC(C)=CC1C(C(=O)OCc2cccc(Oc3ccccc3)c2)C1(C)C (stereo not given) : is its growth no less than 10%?
Result: True

Ask: Has "CCC(=O)Nc1ccc(Cl)c(Cl)c1" a recorded growth greater than or equal to 10%?
Result: True

Ask: // inclusive: growth at least 10%? input: "COc1ccc(C(=O)c2sc3nc4c(cc3c2N)N2CCC4CC2)cc1OC"
Result: True

###

Reported growth values for the following compounds.
System: RXF 393 renal
assay-method-text: NCI-60 one-dose screen, 48 h (100 = growth as untreated, 0 = no growth, -100 = all killed)
experimental-parameters: 10 µM unless noted
The panel holds about 83,000 compounds, 20% with a hit somewhere; the sample as a whole holds those more often.
Record the value in %, omitting the unit from your answer.

Study these solved cases before continuing.
Ask: Please give measured growth of the following entry: CC(=O)O[C@H](C[C@H](C(C)C)N(C)C(=O)[C@@H](NC(=O)[C@H]1CCCCN1C)C(C)C)c1nc(C(=O)NC2CCC(C(=O)O)CC2)cs1 (some centres undefined)
Result: 44.1

Ask: Entry "COC(=O)[C@@H](C)C[C@H](Cc1ccccc1)NC(=O)c1cccc([C@@H](C[C@H](C(C)C)N(C)C(=O)[C@@H](NC(=O)[C@H]2CCCCN2C)C(C)C)OC(C)=O)n1" needs its growth filled in; supply it.
Result: 46.1

Ask: Dear colleague, please send me the reported growth for "COc1ccc(C(=O)c2sc3nc4c(cc3c2N)N2CCC4CC2)cc1OC" when you can.
Result: 85.6

Lab note: next compound to report on.
Ask: Supply growth value. Item: CC12CCC(O)CC1=CCC1C2CCC2(C)C(O)CCC12 (centres undefined)
Result: 101

###

System: OVCAR-5 ovarian
assay-method-text: NCI-60 one-dose screen, 48 h (100 = growth as untreated, 0 = no growth, -100 = all killed)
experimental-parameters: 10 µM unless noted
Method: Growth inhibition of the OVCAR-5 human tumor cell line is measured as a screen for anti-cancer activity. Cells are grown in 96 well plates and exposed to the test compound for 48 hours. Compounds are tested at a single concentration, which is 10^-5 M for most compounds. The reported endpoint is percent growth (GI% or GIPRCNT), where numbers from 0 - 100% represent growth inhibition, and numbers from -100% - 0 represent cell death. For example, a value of 40 represents 60% growth inhibition. […]
About 83,000 compounds went through this panel and 20% of them were active in at least one assay; those are over-represented in the sample as a whole.
measure-name: growth (%)
Answer format: numeric, % implied, no suffix.

# annotated cases, reported growth shown
Ask: For the compound CC1=C2[C@@H](CC1)[C@]1(C)O[C@@](C(C)C)(C[C@H]1O)[C@H]2OC(=O)C1CC1c1ccccc1 (stereo not given in full) , give its reported growth.
Result: 97.5

Ask: State its growth for this compound: "CC(=O)O[C@H]1CC[C@@]2(C)C(=CC[C@H]3[C@@H]4C[C@@H](N5CC5)[C@H](C(C)=O)[C@@]4(C)CC[C@@H]32)C1"
Result: 99.5

Ask: Tell me measured growth for "Cc1ccc(C(=O)NCCCOc2ccc(N)cc2Cl)cc1S(=O)(=O)F" please.
Result: 102

Ask: Item "O=C(CCCC1CCCCC1)OCC(Cl)(Cl)Cl" : provide growth
Result: 120

Ask: Dear colleague, please send me the reported growth for CC12CCC3C(CCC4=CC(=O)CCC43CF)C1CCC2=O (stereo not given) when you can.
Result: 118

Ask: Give the reported growth for this compound. "CC(C)(N)Cc1ccccc1"
Result: 109

Ask: Determine from records and report growth for O=C([O][Hg][CH2]C1COCC([CH2][Hg][O]C(=O)c2ccccc2)O1)c1ccccc1 (stereo not given)
Result: 134

Ask: Return reported growth. Input compound: "C=CC1=C[C@@H]2[C@@H]3O[C@]4(CC[C@H](O4)[C@@H](C)C[C@@H](O)C3=O)C[C@H](O)C3=NCC[C@@]32CC1"
Result: -24

Ask: Give the reported value of growth for this record: COC1CC2c3ccccc3C1C(C)=[N+]2C (stereo not given)
Result: 93.8

Now examine the next entry.
Ask: Kindly indicate its recorded growth. Item: "CCCCCCC(=O)NC1=C(N2CC2)C(=O)C(NC(=O)CCCCCC)=C(N2CC2)C1=O"
Result: 93

###

Test system: K-562 leukemia
assay-method-text: NCI-60 one-dose screen, 48 h
experimental-parameters: 10 µM unless noted
The panel holds about 83,000 compounds, 20% with a hit somewhere; the sample as a whole holds those more often. The source made the active and inactive calls. Rule for the calls: active = growth percent below 10; inactive = the rest.
// allowed return values: active, inactive

Ask: Just curious, what result did CCC1CN1CCCCN1CC1CC (stereo unspecified) get here?
Result: inactive

Ask: Query: recorded result category for NC(=O)C(Br)c1ccccc1 (stereo unspecified) in this test
Result: inactive

Ask: Which outcome was entered for the compound "CN1C(=O)N[C@H]2[C@@H]3NC(=O)c4ccc(Br)n4[C@@H]3C[C@]21O" in this test?
Result: active

Ask: What classification did "O=C1NC(=O)C(=Cc2cccn2CCCCCn2c3ccccc3c(=O)c3ccccc32)C(=O)N1" end up with in this test?
Result: inactive

Ask: Check the results log: what was the call for Nc1nc([Se])c2ncn(C3OC(CO)C(O)C3O)c2n1 (stereo unspecified) ?
Result: inactive

Ask: I would be grateful if you could indicate the recorded call for "CC(=O)O[C@H](C[C@H](C(C)C)N(C)C(=O)[C@@H](NC(=O)[C@H]1CCCCN1C)C(C)(C)C)c1nc(C(=O)N[C@@H](Cc2ccccc2)C[C@H](C)C(=O)O)cs1" .
Result: active

Ask: Hey, what did the test say about "CCC1(C(C)C)C(=O)NC(=S)NC1=O" ?
Result: inactive

Ask: Any idea what this test logged for "Nc1ncnc2n[nH]nc12" ?
Result: inactive

Ask: # outcome recorded in this test, key = "O=[N+]([O-])c1cnc[nH]1"
Result: inactive

Ask: Please state the recorded outcome for this compound: Cc1cccc(N2CCN(C(C)C#N)CC2)c1 (stereo unspecified)
Result: inactive

More entries:
Ask: Could you please tell me the result logged for "O=[N+]([O-])c1cc([N+](=O)[O-])c(Nn2c3ccccc3c3ccccc32)c([N+](=O)[O-])c1" in this assay?
Result: active

###

# Lookup of reported growth keyed by entry
Tested on: UACC-62 melanoma
assay-method-text: NCI-60 one-dose screen, 48 h (100 = growth as untreated, 0 = no growth, -100 = all killed)
experimental-parameters: 10 µM unless noted
The panel holds about 83,000 compounds, 20% with a hit somewhere; the sample as a whole holds those more often.
Quick reminder: number only, in %, skip the unit.

Ask: Specify growth for "COc1ccc(C2=N[C@@H](Cc3ccccc3)C(=O)Nc3ccsc32)cc1" , system UACC-62 melanoma.
Result: 16.9

Ask: Give the observed growth of "COC(=O)[C@H](Cc1ccccc1)NC(=O)c1csc([C@@H](C[C@H](C(C)C)N(C)C(=O)[C@@H](NC(=O)[C@H]2CCCCN2C)C2CC2)OC(C)=O)n1" for UACC-62 melanoma.
Result: 36.3

Ask: Retrieve growth on UACC-62 melanoma; query "CCOC(=O)[C@@H](C)C[C@H](Cc1ccccc1)NC(=O)c1csc([C@@H](C[C@H](C(C)C)N(C)C(=O)[C@H](CC)NC(=O)[C@H]2CCCCN2C)OC(C)=O)n1"
Result: 30.9

Ask: Provide growth, tested on UACC-62 melanoma, for "Cc1cc(N(CCCl)CCCl)ccc1C=Nc1ccc(-c2csc(Cc3ccccc3)n2)cc1" .
Result: 48.6

Ask: Give growth only, for "CC[CH2][Sn]([Cl])([Cl])[CH2]CC" , using UACC-62 melanoma data.
Result: 60

---
Ask: # assay system UACC-62 melanoma: give growth of COc1cc(/C=N/C2=C(C#N)C(c3ccco3)c3c(c4cc(C)ccc4oc3=O)O2)cc(OC)c1OC (centres undefined)
Result: 55.6

Ask: Please tell me the measured growth for "CCCCN(CCCC)P(=O)(Oc1ccccc1)Oc1ccccc1" ; system: UACC-62 melanoma.
Result: 60.1

Ask: # lookup: UACC-62 melanoma growth, key = "CC1(C)N=C(N)N=C(N)N1c1ccc(CCCCc2ccc(Cl)c(S(=O)(=O)F)c2)c(Cl)c1"
Result: 16.2

Ask: Fetch value of growth on UACC-62 melanoma for "CCCCCCCOC(C(=O)OCCN(CC)CC)(c1ccccc1)c1ccccc1" .
Result: 103
